Biological target: T1, Mei-P26 NHL wt (Drosophila melanogaster (Oregon-R), UniProt M9PH32 908-1206)
T1 sequence: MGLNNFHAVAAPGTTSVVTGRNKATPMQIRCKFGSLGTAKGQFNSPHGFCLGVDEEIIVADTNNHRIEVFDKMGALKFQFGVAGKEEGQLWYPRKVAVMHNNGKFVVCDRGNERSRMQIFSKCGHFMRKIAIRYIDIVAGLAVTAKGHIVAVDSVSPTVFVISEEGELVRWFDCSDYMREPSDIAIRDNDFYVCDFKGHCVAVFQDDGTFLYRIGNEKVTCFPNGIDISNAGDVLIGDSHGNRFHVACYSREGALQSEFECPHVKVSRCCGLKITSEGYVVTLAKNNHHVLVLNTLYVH
Test: MST; MST: 20 mM Hepes/KOH pH 7.5, 100 mM NaCl, 5 mM MgCl2, 5 mM DTT, 0.0125% Tween 20, 25 C (Brat: 20 mM Tris 8.0, 150 mM NaCl, 1 mM MgCl2, 5 mM DTT, 0.0125% Tween 20). EMSA, 1:1 mix, 4 C: RNA in 10 mM Tris pH 7.4, 50 mM KCl, 1 mM EDTA, 1 mM DTT, 0.4 mg/ml yeast tRNA; protein in 20 mM Hepes pH 7.5, 5 mM DTT, 100 mM (wt) or 300 mM (mutants) NaCl, 5% glycerol
Settings: protein: recombinant; tags: GST removed by TEV; label: Cy5

[
  {
    "binder": "UUUUACA (ssRNA) [SEQ3]",
    "Kd [nM]": 1700
  },
  {
    "binder": "UUUUUUU (ssRNA) [U7 (SEQ1)]",
    "Kd [nM]": 1800
  }
]
